The values you see were collected from patent US20110293610A1.

biological target: T1, B Lymphocyte Stimulator, soluble form (human) (human, UniProt Q9Y275 134-285, biotinylated with NHS-biotin where used as biotinylated B Lymphocyte Stimulator); test: phage competition ELISA
T1 construct: Coated on plastic, captured on streptavidin plates, amine-coupled to a CM5 chip or free in solution, depending on the assay; also called BLyS; immobilized B Lymphocyte Stimulator

{"Binder": "I016H07 (scFv) scFv: GVQLVQSGAEVKKPGASVKVSCKASGYTFTHYAINWLRQAPGQRPEWMGTINTGNGNTKYSQNFQGRLTITRDTSASTVNMELSSLRSEDTAVYYCAGGYHDPLTSYNYNWFDPWGQGTMVTVSSGGGGSGGGGSGGGGSSELTQDPAVSVALGQTVRITCQGDSLRSYYTNWFQQKPGQAPLLVVYAKNKRPSGIPDRFSGSSSGNTASLTITGAQAEDEADYYCHSRDSSGNHVLFGGGTKLTVLG", "binding result": "binds"}
{"Binder": "I001C09 (scFv) scFv: GVQLVQSGPEVKKPGASVKVSCTASGYTFTSYGVSWVRQAPGQGLEWIGWISAHNGQTKYAEKFQGRVTMTRNTSISTAYMELSSLRSEDTAVYYCARDGSYDILTGYYIDNYMDVWGKGTMVTVSSGGGGSGGGGSGGGGSSELTQDPAVSVALGQTVRITCQGDSLRSYYTNWFQQKPGQAPLLVVYAKNKRPSGIPDRFSGSSSGNTASLTITGAQAEDEADYYCHSRDSSGNHVLFGGGTKLTVLG", "binding result": "binds"}
{"Binder": "I016F02 (scFv) scFv: GVQLVESGAEVKKPGASVKVSCRTSGYTFTSNSFSWVRQAPGQGLEWMGGIIPIFGTANYAQKLQGRVTITADELTRTVYMDLSSLRSEDTAVYYCATGMGDHYGMDVWGRGTLVTVSSGGGGSGGGGSGGGGSQSVLTQPASVSGSPGQSITISCTGTSSDVGGYNYVSWYQQHPGKAPKLMIYEGSKRPSGVSNRFSGSKSGNTASLTISGLQAEDEADYYCSSYTTRSTRVFGGGTKLTVLG", "binding result": "binds"}
